# experiment-summary: Tissue distribution after single oral SZ-A (40 mg/kg) in SD rats, plasma and 12 tissues
# Assay type: in vivo
# test-parameters: rat, Lung, n=5, read-out: AUC(0-t)
endpoint-name: AUC(0-t) (ng·h/mL)

OC[C@H]1NC[C@@H](O)[C@@H]1O: 333

I. OC[C@H]1NCC[C@@H](O)[C@@H]1O
II. OC[C@H]1NC[C@H](O)[C@@H](O)[C@@H]1O
Returns the identifier with the smallest measured AUC(0-t) among I and II . Returns: label corresponding to the selected item.
I
(I: 367 ng·h/mL, II: 1220 ng·h/mL)

* * *

# study-system: CYP2C6 (Rattus norvegicus, UniProt P05178)
# Sequence (P05178 1-490): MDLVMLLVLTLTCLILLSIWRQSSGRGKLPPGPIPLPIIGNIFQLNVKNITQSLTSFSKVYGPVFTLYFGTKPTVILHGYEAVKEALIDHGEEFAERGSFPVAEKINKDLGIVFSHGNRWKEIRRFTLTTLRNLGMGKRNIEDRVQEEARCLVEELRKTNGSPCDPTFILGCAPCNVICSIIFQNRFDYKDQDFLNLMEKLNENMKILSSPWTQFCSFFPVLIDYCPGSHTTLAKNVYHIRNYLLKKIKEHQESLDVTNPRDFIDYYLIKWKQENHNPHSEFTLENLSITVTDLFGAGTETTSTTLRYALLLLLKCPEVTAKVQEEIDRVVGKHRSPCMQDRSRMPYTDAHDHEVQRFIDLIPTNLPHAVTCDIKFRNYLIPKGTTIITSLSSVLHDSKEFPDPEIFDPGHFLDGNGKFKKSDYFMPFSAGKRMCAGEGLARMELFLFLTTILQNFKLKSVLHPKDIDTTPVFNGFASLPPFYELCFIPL
# experiment-summary: in vitro
# test-parameters: liver microsomes, pH 7.4, probe diclofenac sodium (20 μM)
endpoint-name: inhibition at 10 min, 50 μM (%)
State just the number; it will be interpreted in %.

# inhibition at 10 min, 50 μM lookup, item Nc1ccc(S(=O)(=O)Nc2ccnn2-c2ccccc2)cc1
88
